# z-score annotations
assay: modulators of HCV replicon luciferase signal, primary screen, HCV replication inhibitor project, Huh7 cells, luciferase reporter (AID 1109); conditions: 48 h, higher = more signal;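 further: huh7 hepatoma cells harbouring a luciferase neomycin HCV replicon reporter; luciferase luminescence as measure of HCV replicon replication; test concentration not given here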
# respond with the number and nothing more

Use these answered entries as a reference point.
INSERT INTO results (molecule_smiles, reading) VALUES
  ('CO[C@H]1O[C@H](CO)[C@@H](OC(=O)c2ccc(Br)cc2)[C@@H]2OC(=O)[C@H](Cc3ccccc3)C/C=C/C[C@@H](Cc3ccccc3)C(=O)O[C@@H]12', -3.01),
  ('C=C(/C(=C/C[C@@H](OC(C)=O)c1ccc(OCCO)cc1)c1cc(C(=O)OC)ccc1OC)C(C)C', -0.161),
  ('CC(C)C[C@@H]1NC(=O)[C@H]2C[C@@H](C(=O)NCCCCCN)[C@@H](c3cccc(OCCO)c3)N2C1=O', 0.335);

stdin: Using the record for `COC(=O)[C@@]1(Cc2ccc(OC)cc2)[C@H]2c3cc(C(=O)N4CCCC4)n(Cc4cc(C)n(C)n4)c3C[C@H]2CN1C(=O)c1ccccc1` , state its measured z-score.
stdout: -1.38

stdin: Using the record for `COCCOC(=O)N1C(=O)[C@@]2(c3cc(C#CCC(C(=O)OC)C(=O)OC)ccc31)[C@H](C(=O)NC[C@H](O)c1ccccc1)[C@H]1C(=O)O[C@H](c3ccccc3)[C@H](c3ccccc3)N1[C@@H]2c1ccc(OCCO)cc1` , state its measured z-score.
stdout: -1.92

stdin: Using the record for `COc1ccc([Si](C)(C)[C@@H]2[C@@H](CC(=O)N3Cc4ccccc4C[C@H]3CO)O[C@]3(C(=O)N(c4ccccc4)c4ccccc43)[C@H]2C)cc1` , state its measured z-score.
stdout: -4.41
